test system: THRa homodimer (NR concentration 90 nM); assay: PBM binding z-score (relative to random genomic background probes); higher = stronger binding; sequences stand for … in GC…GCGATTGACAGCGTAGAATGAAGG
Each item that follows carries a reported PBM binding z-score.
outcome-measure: PBM binding z-score

chain-sequence	outcome-measure	observed-measurement
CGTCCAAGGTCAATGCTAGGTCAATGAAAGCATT	PBM binding z-score	3.59
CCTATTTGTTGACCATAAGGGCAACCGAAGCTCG	PBM binding z-score	1.89
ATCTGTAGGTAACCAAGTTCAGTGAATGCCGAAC	PBM binding z-score	0.246
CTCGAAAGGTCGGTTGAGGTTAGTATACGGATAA	PBM binding z-score	0.58
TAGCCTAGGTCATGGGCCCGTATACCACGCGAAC	PBM binding z-score	1.76
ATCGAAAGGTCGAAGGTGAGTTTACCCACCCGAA	PBM binding z-score	0.143

----------
test system: THRa homodimer (NR concentration 90 nM); experiment: PBM binding z-score (relative to random genomic background probes); higher = stronger binding; sequences stand for … in GC…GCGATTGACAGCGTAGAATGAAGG
Each item that follows carries a reported PBM binding z-score.

chain-sequence	PBM binding z-score
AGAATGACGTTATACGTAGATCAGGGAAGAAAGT	-1.02
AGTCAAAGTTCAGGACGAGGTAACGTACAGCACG	1.82
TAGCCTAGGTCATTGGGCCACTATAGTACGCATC	1.3
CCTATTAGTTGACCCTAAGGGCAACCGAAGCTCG	3.25
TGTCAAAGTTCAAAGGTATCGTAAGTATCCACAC	-0.19
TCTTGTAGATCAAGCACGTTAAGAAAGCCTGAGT	-0.599
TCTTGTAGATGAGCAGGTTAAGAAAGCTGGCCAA	-0.72
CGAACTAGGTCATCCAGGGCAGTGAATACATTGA	1.25
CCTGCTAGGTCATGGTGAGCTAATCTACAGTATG	0.878
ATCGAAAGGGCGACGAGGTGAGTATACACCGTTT	0.542
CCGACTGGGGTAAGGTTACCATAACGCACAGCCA	1.47
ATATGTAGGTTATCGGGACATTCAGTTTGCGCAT	1.55

----------
test system: RARa:RXR (NR concentration 270 nM, RXRa partner concentration 90 nM); experiment: PBM binding z-score (relative to random genomic background probes); higher = stronger binding; sequences stand for … in GC…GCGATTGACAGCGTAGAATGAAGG
Label label 1 when PBM binding z-score >= 4; otherwise label 0.

chain-sequence	class-assignment
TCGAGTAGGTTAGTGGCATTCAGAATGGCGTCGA	label 0
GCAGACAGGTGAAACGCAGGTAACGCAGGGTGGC	label 0
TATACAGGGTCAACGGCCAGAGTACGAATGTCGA	label 1
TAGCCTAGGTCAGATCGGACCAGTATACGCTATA	label 0
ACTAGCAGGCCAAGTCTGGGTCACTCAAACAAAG	label 0
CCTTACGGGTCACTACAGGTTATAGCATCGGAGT	label 1
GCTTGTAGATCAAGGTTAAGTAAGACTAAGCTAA	label 0
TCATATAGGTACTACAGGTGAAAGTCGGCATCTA	label 0
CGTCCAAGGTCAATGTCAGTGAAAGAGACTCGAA	label 0
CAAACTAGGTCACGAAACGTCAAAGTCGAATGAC	label 0
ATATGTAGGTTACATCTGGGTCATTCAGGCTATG	label 0
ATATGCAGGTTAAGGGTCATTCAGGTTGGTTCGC	label 1
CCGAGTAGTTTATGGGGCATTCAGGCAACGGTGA	label 0
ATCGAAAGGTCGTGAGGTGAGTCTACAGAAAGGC	label 0
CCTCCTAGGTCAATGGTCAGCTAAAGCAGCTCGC	label 0
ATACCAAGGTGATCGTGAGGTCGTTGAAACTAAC	label 0
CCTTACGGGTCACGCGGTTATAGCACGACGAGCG	label 1
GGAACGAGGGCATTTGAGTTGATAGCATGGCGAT	label 0
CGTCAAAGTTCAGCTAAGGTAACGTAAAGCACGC	label 0
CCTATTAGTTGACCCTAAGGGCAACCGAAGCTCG	label 1
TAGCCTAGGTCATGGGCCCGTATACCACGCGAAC	label 0
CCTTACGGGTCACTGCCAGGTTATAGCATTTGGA	label 0
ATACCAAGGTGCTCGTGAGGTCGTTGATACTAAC	label 0
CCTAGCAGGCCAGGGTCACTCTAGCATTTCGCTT	label 0
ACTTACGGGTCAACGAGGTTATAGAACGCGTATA	label 1

The origin of these recorded values is the supplement of paper PMC6555819.
